# Run Description: Reversible inhibition of SARS coronavirus Urbani 3CL protease(9985 to 10902) using TAMRA-SITSAVLQSGFRKMK(DABCYL)-OH as substrate measured for 10 mins by FRET assay
The molecules listed here are annotated with their IC50.
// note: answer is a bare numeric in nM

The following molecules have reported results that may help.
{"columns": ["Molecule", "IC50, nM"],
 "data": [
  ["COc1cccc2[nH]c(C(=O)N(C)[C@@H](CC(C)C)C(=O)N[C@@H](C[C@@H]3CCNC3=O)C(=O)CO)cc12", 83],
  ["COc1cccc2[nH]c(C(=O)N[C@@H](CC3CCCCC3)C(=O)N[C@@H](C[C@@H]3CCNC3=O)C(=O)CO)cc12", 44],
  ["CC(C)(C)C[C@H](NC(=O)c1cc2ccccc2[nH]1)C(=O)N[C@@H](C[C@@H]1CCNC1=O)C(=O)CO", 20],
  ["COCC(=O)[C@H](C[C@@H]1CCNC1=O)NC(=O)[C@H](CC(C)C)NC(=O)c1cc2ccccc2[nH]1", 131]
]}

Lab note: measured IC50 of CC(C)C[C@H](NC(=O)c1cc2ccccc2[nH]1)C(=O)N[C@@H](C[C@@H]1CCNC1=O)C(=O)CO was 38

# IC50 of COc1cccc2[nH]c(C(=O)N[C@@H](Cc3ccccc3)C(=O)N[C@@H](C[C@@H]3CCNC3=O)C(=O)CO)cc12 = 103

The measured IC50 associated with COc1cccc2[nH]c(C(=O)N[C@@H](CC(C)C)C(=O)N[C@@H](C[C@@H]3CCNC3=O)C(=O)CO)cc12 [PF-00835231] reads 4

Recorded values, source ChEMBL document CHEMBL4699574.
